# MEASURED ON: H2-receptor (Cavia porcellus)
# Construct: Technique for the making of dose-response curves in isolated organs
# Sequence (P47747 whole entry): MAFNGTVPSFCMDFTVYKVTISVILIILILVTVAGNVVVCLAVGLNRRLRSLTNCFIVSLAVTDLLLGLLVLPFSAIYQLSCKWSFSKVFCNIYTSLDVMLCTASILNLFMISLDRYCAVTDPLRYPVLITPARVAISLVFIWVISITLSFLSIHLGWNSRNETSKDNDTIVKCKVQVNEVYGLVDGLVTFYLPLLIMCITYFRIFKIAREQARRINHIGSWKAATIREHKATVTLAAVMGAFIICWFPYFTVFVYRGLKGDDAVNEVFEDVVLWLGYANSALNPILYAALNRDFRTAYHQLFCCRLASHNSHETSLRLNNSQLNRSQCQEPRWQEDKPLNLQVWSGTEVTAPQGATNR
# MEASUREMENT DESCRIPTION: H2 agonistic activity (pD2-values), method of J. M. van Rossum, cumulative dose-response curves in isolated organs
READOUT TYPE: EC50 (nM)
Enter your answer as a number in nM; do not include the unit.

-- ask Tell me the measured EC50 of COC(=O)C1=C(C)NC(C)=C(C(=O)OCCCCCCNC(=N)NCCCc2c[nH]cn2)C1c1cccc([N+](=O)[O-])c1 (stereo not shown) , please.
-- reply 38.9

-- ask What does the record list as EC50 for Cc1[nH]cnc1CSCCNC(=N)NCCCc1c[nH]cn1 [Impromidine, reference compound] ?
-- reply 21.4

-- ask Which EC50 value is on record for COC(=O)C1=C(C)NC(C)=C(C(=O)OCCNC(=N)NCCCc2c[nH]cn2)C1c1cccc(Cl)c1Cl (stereo not shown) ?
-- reply 331

-- ask Would you mind telling me what EC50 value was observed for COC(=O)C1=C(C)NC(C)=C(C(=O)OCCNC(=N)NCCCc2c[nH]cn2)C1c1ccccc1[N+](=O)[O-] (stereo not shown) ?
-- reply 47.9
